System: NCI-H1944
Protocol Text: relative viability (nuclei count vs DMSO), 5 days (fraction); higher = more cells survive
Condition Description: first compound 0.005 µM
Result Type: relative viability

// query relative viability lookup needed for Nc1ccn([C@@H]2O[C@H](CO)[C@@H](O)[C@@H]2O)c(=O)n1 [Cytarabine] + CS(=O)(=O)CCNCc1ccc(-c2ccc3ncnc(Nc4ccc(OCc5cccc(F)c5)c(Cl)c4)c3c2)o1 [Lapatinib] (partner 2 µM) , thanks.
// result 0.603

// query For the molecule shown here, Nc1ccn([C@@H]2O[C@H](CO)[C@@H](O)[C@@H]2O)c(=O)n1 [Cytarabine] + Nc1nc2[nH]cc(CCc3ccc(C(=O)N[C@@H](CCC(=O)O)C(=O)O)cc3)c2c(=O)[nH]1 [Pemetrexed] (partner 0.2 µM) , give the reported relative viability.
// result 0.505

// query Request the reported relative viability associated with Nc1ccn([C@@H]2O[C@H](CO)[C@@H](O)[C@@H]2O)c(=O)n1 [Cytarabine] + CS(=O)(=O)N1CCN(Cc2cc3nc(-c4cccc5[nH]ncc45)nc(N4CCOCC4)c3s2)CC1 [Pictilisib] (partner 1 µM)
// result 0.29

// query Data request, read-out relative viability, for COc1cc2nccc(Oc3ccc(NC(=O)Nc4cc(C)on4)c(Cl)c3)c2cc1OC [Tivozanib] + Cc1cc(Nc2cc(N3CCN(C)CC3)nc(Sc3ccc(NC(=O)C4CC4)cc3)n2)n[nH]1 [Tozasertib] (partner 0.1 µM)
// result 0.251

###

Tested on: NCI-H2087
Protocol Text: relative viability (nuclei count vs DMSO), 5 days (fraction); higher = more cells survive
Condition Description: first compound 1.265 µM
Hi there, I'd appreciate the recorded relative viability for every entry that follows.
API doc: respond with a numeric literal and nothing else, no unit.

// query Query (molecule): Cc1sc2c(c1C)C(c1ccc(Cl)cc1)=N[C@@H](CC(=O)OC(C)(C)C)c1nnc(C)n1-2 [JQ1] + Cc1nc(NC(=O)N2CCC[C@H]2C(N)=O)sc1-c1ccnc(C(C)(C)C(F)(F)F)c1 [Alpelisib] (partner 2 µM) ; field requested: relative viability
// result 0.625

// query Entry Cc1sc2c(c1C)C(c1ccc(Cl)cc1)=N[C@@H](CC(=O)OC(C)(C)C)c1nnc(C)n1-2 [JQ1] + COc1cccc2cc(-c3nc([C@H]4CC[C@H](C(=O)O)CC4)n4ncnc(N)c34)[nH]c12 [OSI-027] (partner 0.5 µM) has what relative viability?
// result 0.302

// query State the recorded relative viability for this entry: Cc1sc2c(c1C)C(c1ccc(Cl)cc1)=N[C@@H](CC(=O)OC(C)(C)C)c1nnc(C)n1-2 [JQ1] + CS(=O)(=O)N1CCN(Cc2cc3nc(-c4cccc5[nH]ncc45)nc(N4CCOCC4)c3s2)CC1 [Pictilisib] (partner 1 µM)
// result 0.318

###

Field: relative viability. Provide a value for each of the compounds that follow.
Test system: LK-2
Protocol Text: relative viability (nuclei count vs DMSO), 5 days (fraction); higher = more cells survive
Condition Description: first compound 0.08 µM
Simply state the number, no unit and no words.

// query Data request, read-out relative viability, for O=c1[nH]c2ccccc2n1C1CCN(CCCC(c2ccc(F)cc2)c2ccc(F)cc2)CC1 [Pimozide] + COc1cc2c(Oc3ccc(NC(=O)C4(C(=O)Nc5ccc(F)cc5)CC4)cc3F)ccnc2cc1OCCCN1CCOCC1 [Foretinib] (partner 0.25 µM)
// result 1.65

// query Give the measured relative viability of O=c1[nH]c2ccccc2n1C1CCN(CCCC(c2ccc(F)cc2)c2ccc(F)cc2)CC1 [Pimozide] + O=C(c1cc(Cc2n[nH]c(=O)c3ccccc23)ccc1F)N1CCN(C(=O)C2CC2)CC1 [Olaparib] (partner 8 µM) .
// result 0.643

// query Look at this compound and give its reported relative viability. O=c1[nH]c2ccccc2n1C1CCN(CCCC(c2ccc(F)cc2)c2ccc(F)cc2)CC1 [Pimozide] + COc1cccc2cc(-c3nc([C@H]4CC[C@H](C(=O)O)CC4)n4ncnc(N)c34)[nH]c12 [OSI-027] (partner 0.5 µM)
// result 0.183

// query Fill in: relative viability of O=c1[nH]c2ccccc2n1C1CCN(CCCC(c2ccc(F)cc2)c2ccc(F)cc2)CC1 [Pimozide] + Nc1ncn([C@H]2C[C@H](O)[C@@H](CO)O2)c(=O)n1 [Decitabine] (partner 2 µM) is ___
// result 0.25

// query Quick one: relative viability of O=c1[nH]c2ccccc2n1C1CCN(CCCC(c2ccc(F)cc2)c2ccc(F)cc2)CC1 [Pimozide] + CS(=O)(=O)CCNCc1ccc(-c2ccc3ncnc(Nc4ccc(OCc5cccc(F)c5)c(Cl)c4)c3c2)o1 [Lapatinib] (partner 2 µM) ?
// result 0.851

// query # get_value(readout='relative viability', item= Cc1cnc(-c2cnc(NCCNc3ccc(C#N)cn3)nc2-c2ccc(Cl)cc2Cl)[nH]1 + C[C@]1(O)C[C@@H](c2nc(-c3ccc4ccc(-c5ccccc5)nc4c3)c3c(N)nccn32)C1 [Linsitinib] (partner 1 µM) )
// result 0.62
